Attribution: the RNAGym collection of RNA variant scans (doi:10.1073/pnas.2313332121)

B1: TPR 5TU (parent)
chain: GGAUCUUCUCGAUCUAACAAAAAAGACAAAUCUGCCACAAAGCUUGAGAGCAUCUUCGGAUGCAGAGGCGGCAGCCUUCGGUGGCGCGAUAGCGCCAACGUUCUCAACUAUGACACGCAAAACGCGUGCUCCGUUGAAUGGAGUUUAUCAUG

Variants of: B1
Test: polymerase ribozyme fitness, log enrichment relative to wild type (log ratio); higher = more active; in vitro selection for triplet polymerase activity
Variants at the floor of the assay were thinned out.
readout.label: polymerase ribozyme fitness (log ratio)
One number for each entry.

As a guide, the following entries are already answered.
A52C G84A C116G A120U ... -1.12
A12C A26C G92C ... -3.66
C5A U78C A89U C95U ... -1.72
U111G ... -4.05
A26U C54U C95U ... -1.76
U13G A17G C96A G143C ... -4.19
A39C C57A G86A U130C ... -2.93
G50U ... 0.257

// for each variant below, give its polymerase ribozyme fitness (log ratio)
1. C103A A120C G124A U134A
2. A16U U55G C87U
3. U9G C32A U55A C57U C93G A142C U148C

Result:
1. -3.66
2. -2.67
3. -4.04

Please give polymerase ribozyme fitness (log ratio) for each item listed below.
1. A17C C125G G126A
2. A39C A60G C87U A147C
3. U61G U82C A89U A120U U135A
4. U55A A97C
5. G58C G86U C105A

Result:
-3.65
-3.78
-2.52
0.466
-2.89

For each of the items listed, what is its polymerase ribozyme fitness (log ratio)?
1. A22C U33G G50C U78A C87A G126A U135A U144G
2. G94A G141A
3. U31A C96U A115C U146C
4. A20G C95A A110G
5. A60U C93U

Result:
1. -3.83
2. 0.172
3. -0.845
4. -3.46
5. -3.16
